Cited source: ChEMBL document CHEMBL5058577

Kindly state Total Cell Count for each of the entries shown.
System: U2OS
Test: Multiplex assay against U2OS
Assay type: toxicity, cell-based
Conditions: human, 24 h, 1 µM, compound concentration 1 uM, replicate 2
One number for each entry.

>  <COMPOUND>
COc1cc2nc(N3CCN(C(=O)c4ccco4)CC3)nc(N)c2cc1OC.Cl [PRAZOSIN HYDROCHLORIDE]

>  <RESULT>
188

$$$$

Give Total Cell Count for each of the items listed below.
1. N[C@](CC1c2ccccc2Oc2ccccc21)(C(=O)O)[C@H]1C[C@@H]1C(=O)O
2. COc1cc(C(=O)N2CC[C@@H](O)[C@@H](N)C2)cc2nc(-c3cc4ccccc4n3CC3CC3)n(C)c12.Cl
3. S=C(NCCCc1c[nH]cn1)NCCCN(Cc1ccc(Cl)c(Cl)c1)c1ccc(Br)cn1
4. CN1CCN2c3ccccc3Cc3ccccc3C2C1.Cl (stereo not given) [MIANSERIN HYDROCHLORIDE]
5. COc1ccc2[nH]c(I)c(CCNC(C)=O)c2c1
6. O=c1ccc2ccc(OCCCCN3CCN(c4cccc5sccc45)CC3)cc2[nH]1
7. CN1C[C@H](C(=O)N[C@]2(C)O[C@@]3(O)[C@@H]4CCCN4C(=O)[C@H](Cc4ccccc4)N3C2=O)C[C@@H]2c3cccc4[nH]cc(c34)C[C@H]21.CS(=O)(=O)O [DIHYDROERGOTAMINE MESYLATE]
8. Cc1cc(-c2ccc3c(c2)CC[C@H]3N2CC3(CCN(C(=O)Cc4cn5cc(C)sc5n4)CC3)C2)ncn1

Given back:
1: 137; 2: 109; 3: 125; 4: 142; 5: 179; 6: 128; 7: 132; 8: 126

* * *

Kindly state Population Fragmented Nuclei (%) for each of the entries shown.
System: U2OS
Assay: Multiplex assay against U2OS
Type: toxicity, cell-based
Details: human, 12 h, 10 µM, compound concentration 10 uM, replicate 2
Give bare numbers, in %.

>  <COMPOUND>
OCCCNc1cc(-c2ccnc(Nc3cccc(Cl)c3)n2)ccn1

>  <TESTED_TARGET>
U2OS

>  <Population Fragmented Nuclei (%)>
24

$$$$

Give Population Fragmented Nuclei (%) for each of the items listed below.
1. CCCCC[C@H](O)/C=C/[C@H]1[C@H](O)CC(=O)[C@@H]1CCCCCCC(=O)O
2. C[C@H](NC(=O)CNC(=O)c1cccc(Cl)c1)c1ccccc1
3. Cc1cc(NC(=O)NCCN2CCC(O)(Cc3ccccc3)CC2)c2ccccc2n1
4. Cc1cc(=O)n(C)c2cc(N3C(=O)CC[C@H](NS(=O)(=O)CC(C)C)[C@H]3c3ccc(Cl)cc3)ccc12

Given back:
1: 15; 2: 13; 3: 17; 4: 16

Give Population Fragmented Nuclei (%) for each of the items listed below.
1. CCc1nn2c(C)cc(C)nc2c1Cc1ccc(-c2nnc(C3CCNCC3)o2)cc1
2. O=c1nc2[nH]c3ccccc3nc-2c(=O)[nH]1

Given back:
1. 8
2. 13

* * *

System: U2OS
Assay: Multiplex assay against U2OS
Assay type: toxicity, cell-based
Conditions: human, 12 h, 1 µM, compound concentration 1 uM, replicate 2
Non-standard residues stand in square brackets, D forms with d. Residues, ends and D or L forms follow the SMILES beside them.
Lab note: cut-off is 7%. Strictly less in Population Mitochondria Different-Phenotype (%) is y. Exactly 7% or more is n.

>  <COMPOUND>
CC(C)C[C@@H]1NC(=O)[C@@H](C(C)C)NC(=O)[C@@H]2CCCN2C(=O)[C@@H](CC(=O)O)NC(=O)[C@@H](Cc2c[nH]c3ccccc23)NC1=O [BQ-123] (cyclo(L[dW][dD]P[dV]))

>  <TESTED_TARGET>
U2OS

>  <LABEL_VALUE>
y

$$$$
>  <COMPOUND>
COc1cc(C(=O)N2CC[C@@H](O)[C@@H](N)C2)cc2nc(-c3cc4ccccc4n3CC3CC3)n(C)c12.Cl

>  <TESTED_TARGET>
U2OS

>  <LABEL_VALUE>
n

$$$$
>  <COMPOUND>
Cc1cc(NC(=O)NCCN2CCC(O)(Cc3ccccc3)CC2)c2ccccc2n1 [PALOSURAN]

>  <TESTED_TARGET>
U2OS

>  <LABEL_VALUE>
y

$$$$
>  <COMPOUND>
CN1CCN(c2ccc(Nc3c4ccccc4nc4ccccc34)cc2)CC1.Cl.Cl.O

>  <TESTED_TARGET>
U2OS

>  <LABEL_VALUE>
n

$$$$
>  <COMPOUND>
Cc1sc2c(c1C)C(c1ccc(Cl)cc1)=N[C@H](CC(=O)OC(C)(C)C)c1nnc(C)n1-2

>  <TESTED_TARGET>
U2OS

>  <LABEL_VALUE>
y

$$$$
>  <COMPOUND>
CCc1nn2c(C)cc(C)nc2c1Cc1ccc(-c2nnc(C3CCNCC3)o2)cc1

>  <TESTED_TARGET>
U2OS

>  <LABEL_VALUE>
n

$$$$
>  <COMPOUND>
CN1C[C@H](C(=O)N[C@]2(C)O[C@@]3(O)[C@@H]4CCCN4C(=O)[C@H](Cc4ccccc4)N3C2=O)C[C@@H]2c3cccc4[nH]cc(c34)C[C@H]21.CS(=O)(=O)O [DIHYDROERGOTAMINE MESYLATE]

>  <TESTED_TARGET>
U2OS

>  <LABEL_VALUE>
y

$$$$

Asked: Please state whether Population Mitochondria Different-Phenotype (%) is below 7% for `C[C@@H]1CC(=O)Nc2cccc(-c3ccc4c(c3)c(-c3cnn(C)c3)nn4C)c2N1`
Given back: y

* * *

Test system: HEK-293T
Experiment: Multiplex assay against HEK293T
Type: toxicity, cell-based
Settings: human, 48 h, 1 µM, compound concentration 1 uM, replicate 1
READOUT_KIND: Population Healthy Nuclei (%)
Answers are plain numbers, in %.

Here's what some known entries look like.
>  <MOLECULE>
CN(C)C(=O)Cn1cc(-c2ccc(-c3nnc4ccccn34)cc2)cn1

>  <Population Healthy Nuclei (%)>
81

$$$$
>  <MOLECULE>
CN1CCN2c3ccccc3Cc3ccccc3C2C1.Cl (stereo not drawn) [MIANSERIN HYDROCHLORIDE]

>  <Population Healthy Nuclei (%)>
77

$$$$
>  <MOLECULE>
CSc1nc(NC2CCCC2)c([N+](=O)[O-])c(NC2CCCC2)n1

>  <Population Healthy Nuclei (%)>
74

$$$$
>  <MOLECULE>
N[C@](CC1c2ccccc2Oc2ccccc21)(C(=O)O)[C@H]1C[C@@H]1C(=O)O

>  <Population Healthy Nuclei (%)>
80

$$$$
>  <MOLECULE>
O=c1ccc2ccc(OCCCCN3CCN(c4cccc5sccc45)CC3)cc2[nH]1

>  <Population Healthy Nuclei (%)>
80

$$$$

Give Population Healthy Nuclei (%) for each of the items listed below.
1. CN1C[C@H](C(=O)N[C@]2(C)O[C@@]3(O)[C@@H]4CCCN4C(=O)[C@H](Cc4ccccc4)N3C2=O)C[C@@H]2c3cccc4[nH]cc(c34)C[C@H]21.CS(=O)(=O)O [DIHYDROERGOTAMINE MESYLATE]
2. Cc1nn(C)c2nc(NNC(=O)Nc3cc(Cl)nc(Cl)c3)cc(C(C)C)c12
3. CN(C)C/C=C/C(=O)Nc1ccc(C(=O)N2CCCC(Nc3ncc(Cl)c(-c4c[nH]c5ccccc45)n3)C2)cc1 (stereo not drawn)

Given back:
[78, 78, 59]

* * *

System: HEK-293T
Assay: Multiplex assay against HEK293T
Type: toxicity, cell-based
Conditions: human, 48 h, 1 µM, compound concentration 1 uM, replicate 2
Kindly state Population Fragmented Nuclei (%) for each of the entries shown.
Answers are plain numbers, in %.

Here's what some known entries look like.
>  <COMPOUND>
CN1CCN(c2ccc(Nc3c4ccccc4nc4ccccc34)cc2)CC1.Cl.Cl.O

>  <Population Fragmented Nuclei (%)>
10

$$$$
>  <COMPOUND>
N[C@](CC1c2ccccc2Oc2ccccc21)(C(=O)O)[C@H]1C[C@@H]1C(=O)O

>  <Population Fragmented Nuclei (%)>
12

$$$$
>  <COMPOUND>
C[C@@H]1CC(=O)Nc2cccc(-c3ccc4c(c3)c(-c3cnn(C)c3)nn4C)c2N1

>  <Population Fragmented Nuclei (%)>
9

$$$$
>  <COMPOUND>
COc1cc2nc(N3CCN(C(=O)c4ccco4)CC3)nc(N)c2cc1OC.Cl [PRAZOSIN HYDROCHLORIDE]

>  <Population Fragmented Nuclei (%)>
16

$$$$
>  <COMPOUND>
CN1CCC(C(=O)c2cccc(NC(=O)c3c(F)cc(F)cc3F)n2)CC1

>  <Population Fragmented Nuclei (%)>
9

$$$$

Give Population Fragmented Nuclei (%) for each of the items listed below.
1. COC(c1ccccc1)(c1ccccc1)[C@H](Oc1nc(C)cc(C)n1)C(=O)O
2. CN1CCN2c3ccccc3Cc3ccccc3C2C1.Cl (stereo not given) [MIANSERIN HYDROCHLORIDE]

Given back:
1: 12; 2: 16

Give Population Fragmented Nuclei (%) for each of the items listed below.
1. Cn1cc(C(=O)OCC2CCN(CCNS(C)(=O)=O)CC2)c2ccccc21
2. CCc1nn2c(C)cc(C)nc2c1Cc1ccc(-c2nnc(C3CCNCC3)o2)cc1
3. O=c1nc2[nH]c3ccccc3nc-2c(=O)[nH]1

Given back:
1. 11
2. 11
3. 11
